Overview of recorded IC50 for various molecules
target: C-C chemokine receptor type 5 (Homo sapiens)
Sequence (P51681 whole entry): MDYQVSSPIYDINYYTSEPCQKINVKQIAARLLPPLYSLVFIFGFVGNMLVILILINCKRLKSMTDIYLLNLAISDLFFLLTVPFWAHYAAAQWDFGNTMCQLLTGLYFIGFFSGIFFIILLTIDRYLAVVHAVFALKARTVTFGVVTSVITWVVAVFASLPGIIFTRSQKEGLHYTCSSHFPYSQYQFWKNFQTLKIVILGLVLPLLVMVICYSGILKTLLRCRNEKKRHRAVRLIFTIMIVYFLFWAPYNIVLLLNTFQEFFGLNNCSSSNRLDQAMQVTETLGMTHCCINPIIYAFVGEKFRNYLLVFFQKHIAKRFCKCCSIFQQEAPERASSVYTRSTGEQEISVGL
experimental_details: Antagonist activity at CCR5 receptor in human MOLT4 cells transfected with Gqi5 assessed as inhibition of RANTES-induced calcium mobilization incubated for 15 mins prior to RANTES addition and measured for 120 secs by Fluo-4AM dye based fluorescence analysis

[
  {
    "smiles": "Cc1nnc(C(C)C)n1[C@H]1C[C@H]2CC[C@@H](C1)N2CC[C@H](NC(=O)C1CCC(F)(F)CC1)c1ccc(NC(=O)COCC(=O)NCCCCCCCNC(=O)COCC(=O)N[C@@H]2CC[C@@]3(O)[C@H]4Cc5ccc(O)c6c5[C@@]3(CCN4CC3CC3)[C@H]2O6)cc1",
    "target": "C-C chemokine receptor type 5 (Homo sapiens)",
    "IC50 (nM)": 126
  },
  {
    "smiles": "Cc1nnc(C(C)C)n1[C@H]1C[C@H]2CC[C@@H](C1)N2CC[C@H](NC(=O)C1CCC(F)(F)CC1)c1cccc(NC(=O)COCC(=O)NCCCCCCCNC(=O)COCC(=O)N[C@@H]2CC[C@@]3(O)[C@H]4Cc5ccc(O)c6c5[C@@]3(CCN4CC3CC3)[C@H]2O6)c1",
    "target": "C-C chemokine receptor type 5 (Homo sapiens)",
    "IC50 (nM)": 1340
  },
  {
    "smiles": "Cc1nnc(C(C)C)n1[C@H]1C[C@H]2CC[C@@H](C1)N2CC[C@H](NC(=O)C1CCC(F)(F)CC1)c1ccc(NC(=O)COCC(=O)NCCCCCCCCCNC(=O)COCC(=O)N[C@@H]2CC[C@@]3(O)[C@H]4Cc5ccc(O)c6c5[C@@]3(CCN4CC3CC3)[C@H]2O6)cc1",
    "target": "C-C chemokine receptor type 5 (Homo sapiens)",
    "IC50 (nM)": 543
  }
]
